Target: Purinergic receptor P2Y
Assay: radioligand competition binding, [35S]dATPαS
Details: estimated from the % inhibition data

{"columns": ["compound", "system.tested", "IC50"],
 "data": [
  ["COc1cc(C(F)(F)F)c(OC)cc1[C@@H]1CCCNC1 [(S)-11]", "Purinergic receptor P2Y", "> 10 µM"]
]}

====

Molecular target: Adenosine receptor A1 (Homo sapiens, UniProt P30542)
Sequence (P30542 whole entry): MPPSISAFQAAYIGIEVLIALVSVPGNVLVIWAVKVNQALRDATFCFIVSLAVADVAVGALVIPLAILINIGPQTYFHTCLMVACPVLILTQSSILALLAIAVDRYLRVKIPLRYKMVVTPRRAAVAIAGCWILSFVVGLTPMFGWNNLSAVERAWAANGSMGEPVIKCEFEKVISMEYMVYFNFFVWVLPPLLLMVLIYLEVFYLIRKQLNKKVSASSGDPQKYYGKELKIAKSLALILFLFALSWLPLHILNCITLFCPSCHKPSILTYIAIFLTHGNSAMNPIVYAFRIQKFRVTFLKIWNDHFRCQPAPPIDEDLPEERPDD
observed.property: IC50

{"columns": ["molecule", "system.tested", "value.measured"],
 "data": [
  ["COc1cc(C(F)(F)F)c(OC)cc1[C@@H]1CCCNC1 [(S)-11]", "Adenosine receptor A1 (Homo sapiens, UniProt P30542)", "> 10 µM"]
]}
